Assay Endpoint: light transmittance value

1) CCCCCCCCCCCCCC(=O)OC(C)C [isopropyl myristate] ... about 101%
2) CCCCCCCCCCCCCC(C)C [isohexadecane] ... about 100%
3) CCCCCCCCCCCCCCCCCC(=O)OCCCC [butyl stearate] ... about 100%
4) CCCCCCCCCCCCCCCC(=O)OC(C)C [isopropyl palmitate] ... about 101%
